The reported measurements were obtained from patent US20250084155A1.

target: T1, HSP70 (human HSP70; the antigen of the binning, humanization and variant binding assays) (human, UniProt P0DMV8 1-641, limits assumed); assay: BLI, anti-human Fc capture, antigen 100 nM
T1 construct: also called hu HSP70
T1 sequence (P0DMV8 whole entry, change not shown): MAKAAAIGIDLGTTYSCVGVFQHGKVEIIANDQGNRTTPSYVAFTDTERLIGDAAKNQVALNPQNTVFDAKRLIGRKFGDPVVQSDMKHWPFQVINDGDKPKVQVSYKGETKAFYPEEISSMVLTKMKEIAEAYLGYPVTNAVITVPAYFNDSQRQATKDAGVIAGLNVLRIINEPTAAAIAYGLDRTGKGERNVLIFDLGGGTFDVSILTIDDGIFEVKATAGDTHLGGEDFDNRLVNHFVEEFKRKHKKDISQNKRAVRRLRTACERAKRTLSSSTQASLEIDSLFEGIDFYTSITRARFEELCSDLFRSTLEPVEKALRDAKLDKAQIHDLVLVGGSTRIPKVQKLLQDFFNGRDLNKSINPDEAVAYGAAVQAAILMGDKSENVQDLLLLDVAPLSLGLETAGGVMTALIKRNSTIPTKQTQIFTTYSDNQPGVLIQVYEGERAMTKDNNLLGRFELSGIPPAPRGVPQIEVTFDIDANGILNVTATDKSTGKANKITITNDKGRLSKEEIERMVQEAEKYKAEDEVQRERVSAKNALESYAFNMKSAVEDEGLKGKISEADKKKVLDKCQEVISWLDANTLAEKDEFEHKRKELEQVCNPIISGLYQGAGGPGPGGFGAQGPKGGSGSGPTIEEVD
Please use 1 whenever % Diss is not below 10%, and 0 whenever it is.

// inclusive: % Diss at least 10%? input: h77A-1.27 (antibody, V domains shown, captured by anti-human Fc) VH: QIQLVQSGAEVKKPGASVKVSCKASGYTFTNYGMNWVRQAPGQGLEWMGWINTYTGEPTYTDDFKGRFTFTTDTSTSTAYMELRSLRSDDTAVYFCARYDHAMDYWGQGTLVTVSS VL: EIVLTQSPDSLTVSLGERATINCKSSQSLLNSGTRKNYLAWYQQKAGQSPKLLIYWTSTRESGVPDRFSGSGSGTDFTLTIDSLQAEDVAVYYCKQSYTLYTFGGGTKVEIK
0

// inclusive: % Diss at least 10%? input: h77A-1.70 (antibody, V domains shown, captured by anti-human Fc) VH: QIQLVQSGAEVKKPGASVKVSCKASGYTFTNYGMNWVRQAPGQGLEWMGWINTYTGEPTYSDDFKGRFTFTTDTSTSTAYMELRSLRSDDTAVYFCARYDHAMDYWGQGTLVTVSS VL: EIVLTQSPDSLSVSLGERATINCKSSQSLLNSGTRKNYLAWYQKKAGQSPKLLIYWTSTRESGVPDRFSGSGSGTDFTLTIDRLQAEDVALYYCKQSYTLYTFGGGTKVEIK
1

// inclusive: % Diss at least 10%? input: h77A-1.1 (antibody, V domains shown, captured by anti-human Fc) VH: QIQLVQSGAEVKKPGASVKVSCKASGYTFTKYGMNWVRQAPGQGLEWMGWINTYTGEPTYADDFKGRFTFTTDTSTSTAYMELRSLRSDDTAVYFCARYDHAMDYWGQGTLVTVSS VL: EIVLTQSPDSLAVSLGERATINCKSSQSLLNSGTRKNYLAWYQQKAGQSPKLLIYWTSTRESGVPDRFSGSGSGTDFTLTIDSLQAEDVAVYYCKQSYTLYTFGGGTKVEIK
0

// inclusive: % Diss at least 10%? input: h77A-1.92 (antibody, V domains shown, captured by anti-human Fc) VH: QIQLVQSGAEVKKPGASVKVSCKASGYSFTNYGMNWVRQAPGQGLEWMGWINTYTGEPTYGDDFKGRFTFTTDTSTSTAYMELRSLRSDDTAVYFCARYDHAMDYWGQGTLVTVSS VL: EIVLTQSPDSLTVSLGERATINCKSSQSLFNSGTRKNYLAWYQKKAGQSPKLLIYWTSTRESGVPDRFSGSGSGTDFTLTIDSLQAEDVAVYYCKQSYNLYTFGGGTKVEIK
1

// inclusive: % Diss at least 10%? input: h77A-1.55 (antibody, V domains shown, captured by anti-human Fc) VH: QIQLVQSGSEVKKPGASVKVSCKASGYTFTNYGMNWVRQAPGQGLEWMGWINTYTGEPTYGDDFKGRFTFTTDTSTSTAYMELRSLRSDDTAVYFCARYDHFMDYWGQGTLVTVSS VL: EIVLTQSPDSLSVSLGERATINCKSSQSLLNSGTRKNYLAWYQQKAGQSPKLLIYWTSTRESGVPDRFSGSGSGTDFTLTIDSLQAEDVAVYYCKQSYTLYTFGGGTKVEIK
1

// inclusive: % Diss at least 10%? input: h77A-1.31 (antibody, V domains shown, captured by anti-human Fc) VH: QIQLVQSGAEVKKPGASVKVSCKASGYTFTNYGMNWVRQAPGQGLEWMGWINTYTGEPTYADDFKGRFTFTTDTSTSTAYMELRSLRSDDTAVYFCARYDHPMDYWGQGTLVTVSS VL: EIVLTQSPDSLAVSLGERATINCKSSQSLLNSGTRKNYLAWYQQKAGQSPKLLIYWTSTRESGVPDRFSGSGSGTDFTLTIDRLQAEDVAVYYCKQSYTLYTFGGGTKVEIK
0

// inclusive: % Diss at least 10%? input: h77A-1.11 (antibody, V domains shown, captured by anti-human Fc) VH: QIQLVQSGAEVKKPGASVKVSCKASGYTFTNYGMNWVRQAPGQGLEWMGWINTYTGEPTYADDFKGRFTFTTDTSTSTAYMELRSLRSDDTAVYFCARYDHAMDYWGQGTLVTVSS VL: EIVLTQSPDSLAVSLGERATINCKSSQSLLNSGTRKNYLAWYQQKPGQSPKLLIYWTSTRESGVPDRFSGSGSGTDFTLTIDSLQAEDVAVYYCKQSYTLYTFGGGTKVEIK
1

// inclusive: % Diss at least 10%? input: h77A-1.96 (antibody, V domains shown, captured by anti-human Fc) VH: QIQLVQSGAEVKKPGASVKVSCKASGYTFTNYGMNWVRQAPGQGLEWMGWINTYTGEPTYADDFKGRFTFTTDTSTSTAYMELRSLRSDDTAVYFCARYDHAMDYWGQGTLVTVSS VL: DIVMTQSPDSLAVSLGERATINCKSSQSLLNSGTRKNYLAWYQQKPGQSPKLLIYWTSTRESGVPDRFSGSGSGTDFTLTISSLQAEDVAVYYCKQSYTLYTFGQGTKLEIK
1

// inclusive: % Diss at least 10%? input: h77A-1.61 (antibody, V domains shown, captured by anti-human Fc) VH: QIQLVQSGAEVKKPGASVKVSCKASGYTFTNYGMNWVRQAPGQGLEWMGWINTYTGEPTYADDFKGRFTFTTDTSTSTAYMELRSLRSDDTAVYFCARYDHAMDYWGQGSLVTVSS VL: EIVLTQSPDSLAVSLGERATINCKSSQSLLNSGTRKNYLAWYQKKSGQSPKLLIYWTSTRESGVPDRFSGSGSGTDFTLSIDSLQAEDVAVYYCKQSYTLYTFGGGTKVEIK
0

// inclusive: % Diss at least 10%? input: h77A-1.15 (antibody, V domains shown, captured by anti-human Fc) VH: QIQLVQSGAEVKKPGASVKVSCKASGYTFTNYGMNWVRQAPGQGLEWMGWINTYTGEPTYADDFKGRFTFTTDTSTSTAYMELRSLRSDDTAVYFCARYDHVMDYWGQGTLVTVSS VL: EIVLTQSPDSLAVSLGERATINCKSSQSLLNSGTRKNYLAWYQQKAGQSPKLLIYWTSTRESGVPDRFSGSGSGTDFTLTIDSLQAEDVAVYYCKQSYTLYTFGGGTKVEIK
1
